- assayed-target: T1, T-DBD (Brachyury T-domain) (mouse, UniProt P20293 41-224)
- T1 sequence: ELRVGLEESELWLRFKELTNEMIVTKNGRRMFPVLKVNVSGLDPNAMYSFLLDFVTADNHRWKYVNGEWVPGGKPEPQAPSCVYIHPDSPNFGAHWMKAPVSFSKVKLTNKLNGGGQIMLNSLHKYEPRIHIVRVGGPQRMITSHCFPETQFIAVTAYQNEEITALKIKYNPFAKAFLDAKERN
- experiment-notes: quantitative EMSA; Hill coefficient 14.42; 25 mM HEPES pH 7.4, 75 mM NaCl, 1 mM DTT, 0.25 mM EDTA, 0.1% NP-40, 1 mM MgCl2, 10% glycerol, 10 µg/ml BSA, 0.1 mg/ml poly dI-dC; room temperature, 20 min (1 h)
- assay-context: protein: recombinant; tags: N-terminal His (pET151/D-TOPO), removed by TEV; chain copies: 2; label: 32P 5' end label; blunt (annealed; only one strand given)
pKd: −log10 of the molar value.
property: pKd

| binder | measured |
| --- | --- |
| Dll1 BS2 (dsDNA) DNA 1: TCCCGAGGTGTGATTCTTGGA DNA 2: TCCAAGAATCACACCTCGGGA | 4.86 |

All figures here come from paper PMC7473639.
